Below, each entry is listed alongside its reported IC50.
Target: Beta Secretase enzyme (BACE) (Homo sapiens (Human))
Assay: In vitro enzymatic BACE FRET assay
Format: biochemical
Conditions: read-out: BACE1 Enzyme assay IC50

# annotated cases, reported IC50 shown
Identify IC50 associated with the compound "NC1=N[C@@](c2cc(NC(=O)C3(c4ccc(Cl)cc4)CCC3)ccc2F)(C(F)F)[C@H]2C[C@H]2O1"
> 40000 nM

Identify IC50 associated with the compound "NC1=N[C@@](c2cc(NCC3CCC3)ccc2F)(C(F)F)[C@H]2C[C@H]2O1"
2740 nM

Identify IC50 associated with the compound NC1=N[C@@](c2cc(N[C@H]3CCCc4cc(Br)cnc43)ccc2F)(C(F)F)[C@H]2C[C@H]2O1 (mixture of isomers)
3070 nM

Identify IC50 associated with the compound "NC1=N[C@@](c2cc(NC(=O)c3ccc(-c4ccccc4)cn3)ccc2F)(C(F)F)[C@H]2C[C@H]2O1"
1140 nM

Identify IC50 associated with the compound "NC1=N[C@@](c2cc(Nc3ncnc4cc(C(F)(F)F)cnc34)ccc2F)(C(F)F)[C@H]2C[C@H]2O1"
124 nM

Identify IC50 associated with the compound "NC1=N[C@](CF)(c2cc(NC(=O)c3ccc(Cl)cn3)ccc2F)[C@H]2C[C@H]2O1"
21.1 nM

Further cases:
Identify IC50 associated with the compound "Cc1cc(OCC#N)cnc1C(=O)Nc1ccc(F)c([C@@]2(C(F)F)N=C(N)O[C@@H]3C[C@@H]32)c1"
358 nM

Identify IC50 associated with the compound NC1=N[C@@](c2cc(N[C@@H]3CCc4cc(Br)ccc43)ccc2F)(C(F)F)[C@H]2C[C@H]2O1.NC1=N[C@@](c2cc(N[C@H]3CCc4cc(Br)ccc43)ccc2F)(C(F)F)[C@H]2C[C@H]2O1 (mixture of isomers)
315 nM

Identify IC50 associated with the compound "NC1=N[C@@](CF)(c2cc(NC(=O)c3ccc(Cl)cn3)ccc2Cl)[C@@H]2C[C@@H]2O1"
24100 nM

====

Molecular target: Cathepsin D (Cat D) (Homo sapiens (Human))
Sequence (P07339 65-412, species assumed): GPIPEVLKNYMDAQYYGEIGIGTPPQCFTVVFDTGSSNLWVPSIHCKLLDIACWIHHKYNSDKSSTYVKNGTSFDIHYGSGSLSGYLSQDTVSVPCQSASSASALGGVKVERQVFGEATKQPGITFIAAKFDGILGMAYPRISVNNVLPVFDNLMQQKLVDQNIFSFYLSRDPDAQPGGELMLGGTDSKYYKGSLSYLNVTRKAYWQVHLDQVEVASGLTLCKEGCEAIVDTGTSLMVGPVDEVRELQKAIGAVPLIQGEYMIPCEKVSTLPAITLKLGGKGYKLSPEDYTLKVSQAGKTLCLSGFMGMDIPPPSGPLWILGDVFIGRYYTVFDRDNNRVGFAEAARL
Experiment: In vitro enzymatic Cathepsin D (Cat D) FRET assay
Format: biochemical
Details: read-out: CatD IC50
pIC50: −log10 of the molar value.
Below, each entry is listed alongside its reported pIC50.

# annotated cases, reported pIC50 shown
Identify pIC50 associated with the molecule "CC(C)Oc1cnc(C(=O)Nc2ccc(F)c([C@@]3(C(F)F)N=C(N)O[C@@H]4C[C@@H]43)c2)cn1"
3.15

Identify pIC50 associated with the molecule NC1=N[C@](c2cc(NC(=O)c3ccc(Cl)cn3)ccc2F)(C(F)F)[C@@H]2C[C@@H]2O1 [Example 60]
< 3.40

Identify pIC50 associated with the molecule "COC[C@H](C)NC(=O)c1ccc(F)c([C@]2(C(F)F)N=C(N)O[C@H]3C[C@H]32)c1"
< 3.40

Further cases:
Identify pIC50 associated with the molecule "N#Cc1cnc2c(Nc3ccc(Cl)c([C@@]4(C(F)F)N=C(N)O[C@@H]5C[C@@H]54)c3)ncc(F)c2c1"
< 4.83

Identify pIC50 associated with the molecule NC1=N[C@@](c2cc(NC(=O)c3cnc(OCC4CCOC4)cn3)ccc2F)(C(F)F)[C@H]2C[C@H]2O1 (mixture of isomers)
< 3.40

Identify pIC50 associated with the molecule Cc1cc(C#N)cnc1C(=O)Nc1cc(F)c(F)c([C@@]2(CF)N=C(N)O[C@@H]3C[C@@H]32)c1 [Example 49]
3.69

Identify pIC50 associated with the molecule "NC1=N[C@@](c2cc(Nc3nccc4nc(C(F)(F)F)cnc34)ccc2F)(C(F)F)[C@H]2C[C@H]2O1"
< 4.35

====

Molecular target: Beta Secretase enzyme (BACE) (Homo sapiens (Human), UniProt P56817)
Sequence (P56817 46-501): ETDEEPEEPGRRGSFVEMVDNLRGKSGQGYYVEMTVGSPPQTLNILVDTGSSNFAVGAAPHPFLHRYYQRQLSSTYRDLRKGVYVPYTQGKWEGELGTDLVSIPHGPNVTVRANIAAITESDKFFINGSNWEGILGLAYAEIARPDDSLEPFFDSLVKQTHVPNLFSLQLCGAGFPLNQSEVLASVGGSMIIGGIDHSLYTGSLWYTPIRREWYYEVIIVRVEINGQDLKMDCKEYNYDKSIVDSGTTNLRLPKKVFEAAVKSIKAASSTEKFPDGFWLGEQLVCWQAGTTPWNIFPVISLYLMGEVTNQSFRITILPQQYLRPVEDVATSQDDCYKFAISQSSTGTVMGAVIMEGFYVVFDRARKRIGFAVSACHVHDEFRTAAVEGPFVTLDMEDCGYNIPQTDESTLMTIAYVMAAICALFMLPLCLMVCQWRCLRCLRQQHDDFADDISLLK
Assay: In vitro enzymatic BACE FRET assay
Type: biochemical
Conditions: read-out: BACE1 Enzyme assay IC50
ASSAY_ENDPOINT: IC50 (nM)
Numbers only here, please. The scale is nM.

# annotated cases, reported IC50 shown
Identify IC50 associated with the compound NC1=N[C@@](c2cc(NC(=O)c3cnc(OC(F)F)cn3)ccc2F)(C(F)F)[C@H]2C[C@H]2O1 [Example 238]
21.4

Identify IC50 associated with the compound Cc1cc(NC(=O)c2ncc(C#N)cc2Cl)cc([C@@]2(C(F)F)N=C(N)O[C@@H]3C[C@@H]32)c1F [Example 133]
23

Identify IC50 associated with the compound NC1=N[C@@](c2cccc(NC(=O)c3ccc(Cl)cn3)c2)(C(F)F)[C@H]2C[C@H]2O1 [Example 265]
265

Further cases:
Identify IC50 associated with the compound N#Cc1cnc2c(Nc3ccc(Cl)c([C@@]4(C(F)F)N=C(N)O[C@@H]5C[C@@H]54)c3)ncc(F)c2c1 [Example 350]
31.9

Identify IC50 associated with the compound Cc1c(C(=O)Nc2ccc(F)c([C@@]3(CF)N=C(N)O[C@@H]4C[C@@H]43)c2)nc2ccc(Cl)cn12 [Example 200]
189

Identify IC50 associated with the compound NC1=N[C@@](c2cc(NC(=O)c3nn(C(F)F)cc3Cl)cc(F)c2F)(C(F)F)[C@H]2C[C@H]2O1 (stereo in doubt) [Example 110]
26200

Identify IC50 associated with the compound NC1=N[C@@](c2cc(Nc3nccc4cc(C#CC5CC5)cnc34)ccc2F)(C(F)F)[C@H]2C[C@H]2O1 [Example 406]
75.9

Identify IC50 associated with the compound NC1=N[C@](c2cc(NC(=O)c3nn(C(F)F)cc3Cl)ccc2Cl)(C(F)F)[C@@H]2C[C@@H]2O1 (racemic) [Example 220]
18.8

Identify IC50 associated with the compound NC1=N[C@@](c2cc(NC(=O)c3ccc(Cl)s3)ccc2F)(C(F)F)[C@H]2C[C@H]2O1 [Example 179]
870

Identify IC50 associated with the compound NC1=N[C@@](c2cc(NC(=O)c3c(F)cc(F)cc3F)ccc2F)(C(F)F)[C@H]2C[C@H]2O1 [Example 451]
5380

Identify IC50 associated with the compound NC1=N[C@@](c2cc(NC(=O)c3ccc(Cl)cn3)ccc2Cl)(C(F)F)[C@H]2C[C@H]2O1 (racemic) [Example 97]
37.1

Identify IC50 associated with the compound N#Cc1cnc2c(Nc3ccc(F)c([C@@]4(CF)N=C(N)O[C@@H]5C[C@@H]54)c3)nccc2c1 [Example 346]
53.9

Identify IC50 associated with the compound NC1=NC(CF)(c2cc(NC(=O)c3nn(C(F)F)cc3Cl)cc(F)c2F)[C@@H]2C[C@@H]2O1 (stereo in doubt) [Example 47]
21200

Identify IC50 associated with the compound NC1=N[C@](CF)(c2cc(Nc3nccc4cc(Cl)cnc34)cc(F)c2F)[C@H]2C[C@H]2O1 [Example 342]
59.8

====

Molecular target: Beta Secretase enzyme (BACE) (Homo sapiens (Human), UniProt P56817)
Experiment: In vitro enzymatic BACE FRET assay
Format: biochemical
Conditions: read-out: BACE1 Enzyme assay IC50
pIC50: −log10 of the molar value.
Classify on pIC50 using LOW = under 6, MEDIUM = from 6 up to 7, HIGH = 7 and over

These solved cases illustrate the format of a correct answer.
For "C[C@]1(c2nc(NC(=O)c3ccc(Cl)cn3)ccc2F)N=C(N)O[C@@H]2C[C@@H]21" , which pIC50 bin applies?
MEDIUM

For "N#Cc1ccc(C(=O)Nc2cc(Cl)c(F)c([C@@]3(CF)N=C(N)O[C@@H]4C[C@@H]43)c2)nc1" , which pIC50 bin applies?
HIGH

For "COc1cnc(C(=O)Nc2cc(F)c(F)c([C@]3(CF)N=C(N)O[C@H]4C[C@H]43)c2)cn1" , which pIC50 bin applies?
LOW

For "CC#Cc1ccc(C(=O)Nc2ccc(F)c([C@@]3(C(F)F)N=C(N)O[C@@H]4C[C@@H]43)c2)nc1" , which pIC50 bin applies?
HIGH

Further cases:
For "NC1=N[C@@](c2cc(NC(=O)c3ccc(Cl)cn3)ccc2F)(C(F)F)[C@H]2C[C@H]2O1" , which pIC50 bin applies?
HIGH

For "COc1ccc(C(=O)Nc2ccc(F)c([C@@]3(C(F)F)N=C(N)O[C@@H]4C[C@@H]43)c2)nn1" , which pIC50 bin applies?
LOW

For "C#CCOc1cnc(C(=O)Nc2ccc(F)c([C@@]3(C(F)F)N=C(N)O[C@@H]4C[C@@H]43)c2)cn1" , which pIC50 bin applies?
HIGH

For "CS(=O)(=O)c1ccc(C(=O)Nc2ccc(F)c([C@@]3(C(F)F)N=C(N)O[C@@H]4C[C@@H]43)c2)nc1" , which pIC50 bin applies?
LOW

For "COc1cnc(C(=O)Nc2cnc(F)c([C@]3(C)N=C(N)O[C@H]4C[C@H]43)c2)cn1" , which pIC50 bin applies?
MEDIUM

====

Biological target: BACE (Homo sapiens (Human), UniProt P56817)
Sequence (P56817 46-501, species assumed): as the sequence (P56817 46-501) above
Experiment: In vitro BACE cell-based assay (Aβ40 in conditioned medium, sandwich ELISA)
ASSAY_ENDPOINT: IC50

# annotated cases, reported IC50 shown
Identify IC50 associated with the compound "CC(C)n1cc(Cl)c(C(=O)Nc2ccc(F)c([C@@]3(C(F)F)N=C(N)O[C@@H]4C[C@@H]43)c2)n1"
> 15.6 µM

Identify IC50 associated with the compound "COCCOCC(=O)Nc1ccc(F)c([C@@]2(C(F)F)N=C(N)O[C@@H]3C[C@@H]32)c1"
> 15.6 µM

Please look at the following compound next.
Identify IC50 associated with the compound COc1cnc(C(=O)Nc2cc(F)c(Cl)c([C@]3(CF)N=C(N)O[C@H]4C[C@H]43)c2)cn1 [Example 155]
> 15.6 µM
